Provide the recorded inhibition for the entries that follow.
assay: growth inhibitors of wild type E. coli, primary screen, strain BW25113 wild type, absorbance readout (AID 552); settings: OD600, at 10 µM, active compounds read high;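 note: bacteria exposed to compound for 20 hours at 37 °C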
In all, about 20,000 compounds went through this assay and about 10 (0.05%) were called active. Only a selection was taken, and actives are over-represented in it overall.

Answered examples (2):
{"columns": ["compound", "inhibition"],
 "data": [
  ["Cc1ccc(-c2noc(CSc3nnc(-c4ccccc4)n3C)n2)cc1", "13.8% (inactive)"],
  ["CCOC(=O)c1c(N)c(C#N)nn1-c1ccccc1C(=O)OC", "-8.34% (inactive)"]
]}

I'm hoping you can list inhibition for every compound here, please.
1. Cc1noc(C)c1CSc1nc2cc(S(=O)(=O)N3CCOCC3)ccc2o1
2. CC(=O)NC1CC2CCCC(C1)N2CC(=O)Nc1ccccc1 (stereo not drawn)
3. Cc1cccc(C(=O)Nc2ccc(CC(=O)O)cc2)c1
4. Cc1nn(CC(=O)Nc2ccc3c(c2)nc(CN2CCCCC2)n3C)c(=O)c2ccccc12
5. CCC1=C(C(=O)OC)C(c2cc(OC)ccc2OC)C(C#N)=C(N)O1 (stereo not drawn)
6. O=C(CSc1nc2ccccc2o1)N1CCN(c2ccccc2)CC1
7. Cc1cc(NC(=O)CN2CCC(O)(c3cccc(F)c3)CC2)no1

Result block:
["-3.26% (inactive)", "6.86% (inactive)", "-0.63% (inactive)", "2.04% (inactive)", "-1.96% (inactive)", "-25.4% (inactive)", "-0.42% (inactive)"]

I'm hoping you can list inhibition for every compound here, please.
1. CCC(C)n1[nH]c(=O)c2c(C)cc(C)nc21 (stereo not drawn)
2. COCCCn1c(CCC(=O)O)ccc1-c1ccc(F)cc1
3. Cc1occc1C(=O)Nc1nnc(C2CCCCC2)s1
4. CCOC(=O)CC1C(=O)NCCN1C(=O)COc1ccc(Br)cc1C (stereo not drawn)
5. COC(=O)c1ccc(Oc2nc(Nc3ccc(F)cc3)nc(N3CCCC3)n2)cc1
6. O=C1CC(c2ccccc2)CC(O)=C1C=NCCN1CCOCC1 (stereo not drawn)
7. Cc1cc(C)c2c(n1)nn1c(N3CCN(c4cccc(Cl)c4)CC3)cc(C)nc21
8. CC1CCCC(N2CCN(C(=O)c3ccc(F)cc3)CC2)C1 (stereo not drawn)

Result block:
["5.71% (inactive)", "-9.43% (inactive)", "0.21% (inactive)", "-24.8% (inactive)", "-16.9% (inactive)", "0.58% (inactive)", "-4.02% (inactive)", "8.12% (inactive)"]

----------
assay: growth inhibitors of wild type E. coli, primary screen, strain BW25113 wild type, absorbance readout (AID 552); settings: OD600, at 10 µM, active compounds read high;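 note: bacteria exposed to compound for 20 hours at 37 °C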
Screen size: about 20,000 compounds; about 10 (0.05%) were called active. The sample as a whole holds a higher share of actives than the screen did.
test readout: inhibition (%)
Numbers only, in %.

Answered examples (6):
{"columns": ["compound", "inhibition / %"],
 "data": [
  ["CCc1nnc(NC(=O)c2ccc(S(=O)(=O)NC3CCCCC3)cc2)s1", -3.77],
  ["COC(=O)COc1ccc2oc(=O)cc(C)c2c1", -18.5],
  ["CC1CC(C)CN(CC(=O)Nc2ccc(S(N)(=O)=O)cc2)C1 (centres undefined)", 0.613],
  ["COC(=O)Cc1c(C)c2ccc(OCC(=O)NCc3ccc4c(c3)OCO4)cc2oc1=O", -21.1],
  ["COCCn1c(-c2ccc(OC)c(OC)c2)nc2ccccc21", -1.61],
  ["CC(C)Cc1ccc(S(=O)(=O)N2CCN(C(=O)c3ccco3)CC2)cc1", -19.7]
]}

I'm hoping you can list inhibition for every compound here, please.
1. CS(=O)(=O)N(Cc1nc2sc3c(c2c(=O)[nH]1)CCCC3)C1CCCCC1
2. CCCCn1c(CN2CCN(CCO)CC2)nc2ccccc21
3. Cc1ccc(C(=O)N2CCCCCC2)cc1Br

Result block:
1: 9.07; 2: -3.29; 3: -8.59
